- Protocol Summary: recombinant UMI read abundance after kanamycin selection (control-corrected) (log10(CPM+1)); higher = more efficient recombination; extreme values may be limits of the assay; sequences stand for … in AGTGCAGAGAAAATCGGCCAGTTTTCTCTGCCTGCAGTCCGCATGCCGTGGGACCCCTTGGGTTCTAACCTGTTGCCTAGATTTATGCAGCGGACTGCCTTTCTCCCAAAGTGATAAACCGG…AGGTTGGTTTCACT; site = the 11-nt donor;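 note: IS621 bridge recombinase in Escherichia coli cells against a fixed T5 target plasmid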
Measure Name: recombinant UMI read abundance (log10)
Answer with a bare number; do not write a unit.

Reference set, count: 2
> print(dat)
                              sequence.data                            measure.name  reported
1  AGCGTGGCATGGACCGGTTTTCCCGGTAATCCGTATTTGGG (site AGCGTGGCTCC)  recombinant UMI read abundance (log10)     0.277
2  GGGCCAACATGGACCGGTTTTCCCGGTAATCCGTATTTGTA (site GGGCCAACTTA)  recombinant UMI read abundance (log10)     0.645

What the record says about ACCTAGACATGGACCGGTTTTCCCGGTAATCCGTATTTGAG (site ACCTAGACTCC) : recombinant UMI read abundance (log10) is 0.241

What the record says about CAATGGCCATGGACCGGTTTTCCCGGTAATCCGTATTTGCA (site TAATGGCCTTG) : recombinant UMI read abundance (log10) is 0.198

What the record says about TTGGCTGCATGGACCGGTTTTCCCGGTAATCCGTATTTGTG (site TTTGCTGCTCA) : recombinant UMI read abundance (log10) is 0.0121

What the record says about GTTCGGGCATGGACCGGTTTTCCCGGTAATCCGTATTTGCA (site GTTCGCGCTTG) : recombinant UMI read abundance (log10) is 0

What the record says about TGGAATCCATGGACCGGTTTTCCCGGTAATCCGTATTTGTT (site GGGAATCCTAA) : recombinant UMI read abundance (log10) is 0

What the record says about AGGAAGACATGGACCGGTTTTCCCGGTAATCCGTATTTGCA (site CGGAAGACTTT) : recombinant UMI read abundance (log10) is 0.95

What the record says about TGAAAATCATGGACCGGTTTTCCCGGTAATCCGTATTTGAT (site TGAAAATCTAT) : recombinant UMI read abundance (log10) is 0

What the record says about GGCCACCCATGGACCGGTTTTCCCGGTAATCCGTATTTGTT (site GGCCACTCTAA) : recombinant UMI read abundance (log10) is 0.00279

What the record says about TTACGTCCATGGACCGGTTTTCCCGGTAATCCGTATTTGCA (site TTACGTCCTTG) : recombinant UMI read abundance (log10) is 0.977

What the record says about CCCGGTCCATGGACCGGTTTTCCCGGTAATCCGTATTTGCA (site ACCGGTCCTTG) : recombinant UMI read abundance (log10) is 0

What the record says about TCCTAGACATGGACCGGTTTTCCCGGTAATCCGTATTTGGG (site GCCTAGACTCC) : recombinant UMI read abundance (log10) is 0.0199

What the record says about CAAATTTCATGGACCGGTTTTCCCGGTAATCCGTATTTGTG (site CAAATTTCTCA) : recombinant UMI read abundance (log10) is 0.763
